Origin of values: patent US20260207602A1

target: EGFR L858R (Homo sapiens, UniProt P00533, L858R); construct: purchased SignalChem E10-122BG; assay: Biochemical EGFR inhibition assay (Caliper mobility shift), EGFR L858R; details: biochemical Caliper mobility shift assay, EGFR L858R enzyme; read-out: Enz EGFR L858R IC50
Sequence (P00533 25-1210 L858R): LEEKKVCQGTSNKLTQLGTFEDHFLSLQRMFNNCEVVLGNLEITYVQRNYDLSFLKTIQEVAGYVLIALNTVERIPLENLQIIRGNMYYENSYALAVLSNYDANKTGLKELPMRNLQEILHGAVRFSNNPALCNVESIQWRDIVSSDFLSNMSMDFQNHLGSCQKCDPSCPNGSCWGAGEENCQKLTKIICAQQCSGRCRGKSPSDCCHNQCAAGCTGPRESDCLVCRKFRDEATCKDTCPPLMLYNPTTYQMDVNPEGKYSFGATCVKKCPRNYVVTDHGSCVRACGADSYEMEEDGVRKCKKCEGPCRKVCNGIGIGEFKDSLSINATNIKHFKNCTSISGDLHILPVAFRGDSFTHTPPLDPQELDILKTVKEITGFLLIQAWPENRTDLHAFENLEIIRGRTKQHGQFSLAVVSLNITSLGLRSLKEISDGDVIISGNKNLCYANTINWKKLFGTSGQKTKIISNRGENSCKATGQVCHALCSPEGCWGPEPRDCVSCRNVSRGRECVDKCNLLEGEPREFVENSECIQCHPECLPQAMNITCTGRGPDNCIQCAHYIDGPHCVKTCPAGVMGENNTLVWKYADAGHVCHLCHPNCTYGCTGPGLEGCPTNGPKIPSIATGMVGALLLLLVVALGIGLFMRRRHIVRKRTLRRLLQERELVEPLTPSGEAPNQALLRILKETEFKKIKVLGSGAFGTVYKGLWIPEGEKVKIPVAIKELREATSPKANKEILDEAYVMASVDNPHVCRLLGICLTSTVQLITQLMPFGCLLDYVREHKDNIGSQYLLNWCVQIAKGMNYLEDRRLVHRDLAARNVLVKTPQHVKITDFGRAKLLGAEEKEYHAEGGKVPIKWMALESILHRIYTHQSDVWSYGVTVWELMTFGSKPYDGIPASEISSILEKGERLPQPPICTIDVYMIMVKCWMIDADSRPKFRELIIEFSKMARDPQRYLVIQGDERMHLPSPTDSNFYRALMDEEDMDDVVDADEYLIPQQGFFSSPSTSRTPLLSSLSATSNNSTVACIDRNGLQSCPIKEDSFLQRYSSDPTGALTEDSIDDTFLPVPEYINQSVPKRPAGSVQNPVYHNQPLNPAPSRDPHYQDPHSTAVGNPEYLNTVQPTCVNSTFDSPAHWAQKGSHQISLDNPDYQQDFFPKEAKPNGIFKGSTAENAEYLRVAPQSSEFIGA
Description: […]
pIC50: −log10 of the molar value.
property_label: pIC50

Here is how some compounds turned out for pIC50.
C[C@@H](Oc1cc(-c2cn(C)n(C(F)F)c2=O)cc2ncnc(Nc3ccc4ncsc4c3)c12)C1COC1 (single isomer, unassigned) [Example 174]	≥ 8.00
CN1CC(Oc2cc(-c3cnn(C)c3)cc3ncnc(Nc4ccc5ncsc5c4)c23)C1	7.30 to 8.00

Attention now shifts to the item below.
Noted for CN1CC[C@@H](F)[C@@H](Oc2cc(-c3cnn(C)c3)cc3ncnc(Nc4ccc5ncsc5c4)c23)C1 (single isomer, unassigned) [Example 162] : its pIC50 reads ≥ 8.00
